Please go through the items and note down their residual activity.
- test_target: STK11 (human)
- experimental_details: radiometric filter-binding kinase assay, Kinase HotSpot
- conditions_used: compound 0.5 µM; ATP 10 µM
Give bare numbers, in %.

Here are 3 compounds together with their reported answers.
* O=C1Nc2ccc(Br)cc2/C1=C\c1cc2c([nH]1)CCCC2 | 88.7
* COc1cc2ncnc(Nc3ccc(Oc4ccccc4)cc3)c2cc1OC | 93.6
* O=C(c1cc2cc(O)ccc2[nH]1)c1cc2cc(O)ccc2[nH]1 | 101

Lab note: each compound below needs its residual activity filled in.
1. NC(=O)c1cccc(-c2cc(Nc3ccc(OC(F)(F)F)cc3)ncn2)c1
2. C[C@@H]1CCN(C(=O)CC#N)C[C@@H]1N(C)c1ncnc2[nH]ccc12
3. COc1cc2ncnc(Nc3ccc(OCc4ccccc4)cc3)c2cc1OC
4. CN(C)c1ccc(/C=C2\C(=O)Nc3ccccc32)cc1
5. CN(C)CCCn1cc(C2=C(c3c[nH]c4ccccc34)C(=O)NC2=O)c2ccccc21
6. Fc1ccc(-c2nc3n(c2-c2ccncc2)CCS3)cc1

[97.2, 104, 102, 99.4, 92.8, 93.8]

Lab note: each compound below needs its residual activity filled in.
1. Cc1cccc(-c2nc(C(C)(C)C)[nH]c2-c2ccc3c(c2)OCO3)n1
2. N#C/C(=C\c1ccc(O)c(O)c1)C(=O)NCc1ccccc1
3. COc1cc(Nc2c(C#N)cnc3cc(OCCCN4CCN(C)CC4)c(OC)cc23)c(Cl)cc1Cl
4. COc1ccc2c(c1)/C(=C/c1cnc[nH]1)C(O)=N2
5. COc1ccc2c(c1)c(C1=C(c3c[nH]c4ccccc34)C(=O)NC1=O)cn2CCCN(C)C

[91.3, 97.4, 98.1, 51.7, 101]

Lab note: each compound below needs its residual activity filled in.
1. N#Cc1c[nH]c2c[nH]/c(=N\Cc3cccnc3)cc2/c1=N\c1ccc(F)c(Cl)c1
2. COc1ccc(Cl)cc1NC(=O)Nc1cc(C)nc2ccccc12
3. Cc1cncc2cccc(S(=O)(=O)N3CCCN(C(=O)CN)C[C@H]3C)c12
4. O=C1c2ccccc2-c2nc3nnnn3nc21

1: 91.1; 2: 103; 3: 86.5; 4: 99.1

Lab note: each compound below needs its residual activity filled in.
1. Ic1cccc(CSc2nnc(-c3ccncc3)o2)c1
2. CC(C)(C)c1cc(C=C(C#N)C#N)cc(Br)c1O
3. CS(=O)(=O)CCNCc1ccc(-c2ccc3ncnc(Nc4ccc(OCc5cccc(F)c5)c(Cl)c4)c3c2)o1
4. Cn1c2ccccc2c2c3c(c4c5ccccc5n(CCC#N)c4c21)CNC3=O

1. 103
2. 85.2
3. 106
4. 31.8

Lab note: each compound below needs its residual activity filled in.
1. CN(C)S(=O)(=O)c1ccc2c(c1)/C(=C/c1cc3c([nH]1)CCCC3)C(=O)N2
2. c1ccc2c(-c3ccncc3)c[nH]c2c1

[90.4, 90.7]

* * *

Please go through the items and note down their residual activity.
- test_target: CSNK2A1 (human)
- experimental_details: radiometric filter-binding kinase assay, Kinase HotSpot
- conditions_used: compound 0.5 µM; ATP 10 µM
Answers are plain numbers, in %.

Here are 3 compounds together with their reported answers.
- Cc1cccc(-c2nc(C(C)(C)C)[nH]c2-c2ccc3c(c2)OCO3)n1: 98
- COc1ccc2c(c1)c(C1=C(c3c[nH]c4ccccc34)C(=O)NC1=O)cn2CCCN(C)C: 95.9
- O=C(c1cc2cc(O)ccc2[nH]1)c1cc2cc(O)ccc2[nH]1: 88.7

Lab note: each compound below needs its residual activity filled in.
1. COc1cc2ncnc(Nc3ccc(OCc4ccccc4)cc3)c2cc1OC
2. COc1ccc2c(c1)/C(=C/c1cnc[nH]1)C(O)=N2
3. N#C/C(=C\c1ccc(O)c(O)c1)C(=O)NCc1ccccc1
4. Ic1cccc(CSc2nnc(-c3ccncc3)o2)c1

[95.8, 67.8, 86.6, 97.3]

* * *

- test_target: AURKB (human) (UniProt Q96GD4)
- Sequence (Q96GD4 whole entry, looked up): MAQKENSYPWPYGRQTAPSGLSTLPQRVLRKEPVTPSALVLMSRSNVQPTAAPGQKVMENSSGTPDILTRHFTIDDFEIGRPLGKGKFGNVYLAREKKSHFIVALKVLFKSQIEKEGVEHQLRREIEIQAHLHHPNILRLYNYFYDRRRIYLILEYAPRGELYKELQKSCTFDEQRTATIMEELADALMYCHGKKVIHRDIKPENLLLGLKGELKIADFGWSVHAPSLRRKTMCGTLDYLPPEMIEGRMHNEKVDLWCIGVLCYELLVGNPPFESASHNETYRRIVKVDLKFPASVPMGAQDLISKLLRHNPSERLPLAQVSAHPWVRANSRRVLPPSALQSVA
- experimental_details: radiometric filter-binding kinase assay, Kinase HotSpot
- conditions_used: compound 0.5 µM; ATP 10 µM
Rule: residual activity of 60% or more gives 1.0; anything lower gives 0.0.

For this compound, is measured residual activity 60% or higher? COc1ccc2c(c1)/C(=C/c1cnc[nH]1)C(O)=N2 0.0

For this compound, is measured residual activity 60% or higher? Cn1c2ccccc2c2c3c(c4c5ccccc5n(CCC#N)c4c21)CNC3=O 0.0

For this compound, is measured residual activity 60% or higher? COc1cc2ncnc(Nc3ccc(Oc4ccccc4)cc3)c2cc1OC 0.0

For this compound, is measured residual activity 60% or higher? O=C1NC(=O)c2c1c1c3ccccc3[nH]c1n1cncc21 0.0

For this compound, is measured residual activity 60% or higher? COc1cc(Nc2c(C#N)cnc3cc(OCCCN4CCN(C)CC4)c(OC)cc23)c(Cl)cc1Cl 1.0

For this compound, is measured residual activity 60% or higher? CCCCc1c(-c2ccc(OC)cc2)[nH]c2nccnc12 1.0

For this compound, is measured residual activity 60% or higher? COc1ccc(Cl)cc1NC(=O)Nc1cc(C)nc2ccccc12 1.0

For this compound, is measured residual activity 60% or higher? COc1cc2ncnc(Nc3ccc(OCc4ccccc4)cc3)c2cc1OC 0.0

For this compound, is measured residual activity 60% or higher? CN(C)CCCn1cc(C2=C(c3c[nH]c4ccccc34)C(=O)NC2=O)c2ccccc21 1.0

For this compound, is measured residual activity 60% or higher? Fc1ccc(-c2nc3n(c2-c2ccncc2)CCS3)cc1 1.0

* * *

- test_target: PHKG1 (human) (UniProt Q16816)
- Sequence (Q16816 whole entry, looked up): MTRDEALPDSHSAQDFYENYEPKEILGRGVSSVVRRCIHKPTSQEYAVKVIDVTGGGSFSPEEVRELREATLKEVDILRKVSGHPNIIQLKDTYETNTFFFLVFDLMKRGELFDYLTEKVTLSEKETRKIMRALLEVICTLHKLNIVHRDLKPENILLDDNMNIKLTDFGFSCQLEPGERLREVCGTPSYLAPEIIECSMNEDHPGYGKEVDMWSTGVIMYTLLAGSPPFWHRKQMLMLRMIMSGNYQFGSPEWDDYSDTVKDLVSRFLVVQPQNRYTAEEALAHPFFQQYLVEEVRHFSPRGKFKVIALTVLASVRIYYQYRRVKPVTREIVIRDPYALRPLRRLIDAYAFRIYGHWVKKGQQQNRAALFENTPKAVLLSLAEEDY
- experimental_details: radiometric filter-binding kinase assay, Kinase HotSpot
- conditions_used: compound 0.5 µM; ATP 10 µM
assay_readout: residual activity (%)
Give bare numbers, in %.

Here are 3 compounds together with their reported answers.
- Cc1nc(-c2ccccc2)c(-c2ccncc2)o1: 96.1
- Ic1cccc(CSc2nnc(-c3ccncc3)o2)c1: 105
- COc1cc2ncnc(Nc3ccc(OCc4ccccc4)cc3)c2cc1OC: 100

Lab note: each compound below needs its residual activity filled in.
1. COc1ccc2c(c1)c(C1=C(c3c[nH]c4ccccc34)C(=O)NC1=O)cn2CCCN(C)C
2. Cn1c2ccccc2c2c3c(c4c5ccccc5n(CCC#N)c4c21)CNC3=O
3. O=C1Nc2ccc(Br)cc2/C1=C\c1cc2c([nH]1)CCCC2
4. O=C1C(Cl)=C(N2C(=O)CCC2=O)C(=O)c2ccccc21
5. CCCCc1c(-c2ccc(OC)cc2)[nH]c2nccnc12
6. N#C/C(=C\c1ccc(O)c(O)c1)C(=O)NCc1ccccc1
7. COc1ccc(Cl)cc1NC(=O)Nc1cc(C)nc2ccccc12

66.4
1.76
60.2
96.5
89.4
92.6
102

* * *

- test_target: DYRK3 (human) (UniProt O43781)
- Sequence (O43781 whole entry, looked up): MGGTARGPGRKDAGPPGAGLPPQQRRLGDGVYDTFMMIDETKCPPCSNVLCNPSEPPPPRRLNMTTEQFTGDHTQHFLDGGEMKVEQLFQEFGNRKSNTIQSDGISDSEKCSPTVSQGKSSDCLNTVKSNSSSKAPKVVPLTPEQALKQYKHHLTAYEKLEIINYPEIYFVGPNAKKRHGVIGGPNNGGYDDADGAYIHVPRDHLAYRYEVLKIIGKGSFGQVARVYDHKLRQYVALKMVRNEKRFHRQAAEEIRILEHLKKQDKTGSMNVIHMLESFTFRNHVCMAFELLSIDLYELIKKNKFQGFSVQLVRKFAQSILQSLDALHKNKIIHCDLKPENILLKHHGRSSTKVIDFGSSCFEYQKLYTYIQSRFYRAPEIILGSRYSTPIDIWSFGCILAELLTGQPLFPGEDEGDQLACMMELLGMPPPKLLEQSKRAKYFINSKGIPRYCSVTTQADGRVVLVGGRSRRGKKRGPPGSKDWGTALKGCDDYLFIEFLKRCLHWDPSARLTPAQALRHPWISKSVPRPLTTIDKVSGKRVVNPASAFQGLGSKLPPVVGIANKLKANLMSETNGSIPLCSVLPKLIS
- experimental_details: radiometric filter-binding kinase assay, Kinase HotSpot
- conditions_used: compound 0.5 µM; ATP 10 µM
Please go through the items and note down their residual activity.
Numbers only, in %.

• Fc1ccc(-c2nc3n(c2-c2ccncc2)CCS3)cc1 = 103
• COc1cc(Nc2c(C#N)cnc3cc(OCCCN4CCN(C)CC4)c(OC)cc23)c(Cl)cc1Cl = 91.8
• O=C(c1cc2cc(O)ccc2[nH]1)c1cc2cc(O)ccc2[nH]1 = 115
• Ic1cccc(CSc2nnc(-c3ccncc3)o2)c1 = 108

Lab note: each compound below needs its residual activity filled in.
1. O=C1Nc2ccc(Br)cc2/C1=C\c1cc2c([nH]1)CCCC2
2. Cc1cccc(-c2nc(C(C)(C)C)[nH]c2-c2ccc3c(c2)OCO3)n1
3. COc1ccc(Cl)cc1NC(=O)Nc1cc(C)nc2ccccc12
4. O=C1NC(=O)c2c1c1c3ccccc3[nH]c1n1cncc21
5. CO[C@@H]1[C@H](N(C)C(=O)c2ccccc2)C[C@H]2O[C@]1(C)n1c3ccccc3c3c4c(c5c6ccccc6n2c5c31)C(=O)NC4
6. CCCCc1c(-c2ccc(OC)cc2)[nH]c2nccnc12
7. Cc1cncc2cccc(S(=O)(=O)N3CCCN(C(=O)CN)C[C@H]3C)c12

[94, 102, 106, 85.8, 98.5, 96.1, 107]

* * *

- test_target: STK16 (human)
- experimental_details: radiometric filter-binding kinase assay, Kinase HotSpot
- conditions_used: compound 0.5 µM; ATP 10 µM
assay_readout: residual activity
Could you write the number and then its unit?

Here are 3 molecules together with their reported answers.
- CCCCc1c(-c2ccc(OC)cc2)[nH]c2nccnc12: 58.7%
- O=C1NC(=O)c2c1c1c3ccccc3[nH]c1n1cncc21: 70.9%
- O=C(c1cc2cc(O)ccc2[nH]1)c1cc2cc(O)ccc2[nH]1: 54.6%

Then there is this molecule:
For CC(C)(C)c1cc(C=C(C#N)C#N)cc(Br)c1O , write its residual activity. 99.2%
